test system: human acute monocytic leukemia cell strain THP-1; assay: LPS-stimulated TNFα production inhibition test using THP-1 cells; type: cell-based; settings: Homo sapiens, THP-1, 4 h, LPS 2.5 ng/mL, TNFα by HTRF
measure name: IC50
In your response, the unit should come after the numeric value.

Known results for molecules:
molecule	study system	value
CN1CC[C@H]2C[C@H]1C(=O)NCC1(CCC1)COc1c(-c3cnc(CO)s3)ccc3ncc(nc13)N2	human acute monocytic leukemia cell strain THP-1	0.21 µM
CCCOCc1ncc(-c2ccc3ncc4nc3c2OCC(F)COC(=O)[C@@H]2C[C@H](CCN2C)N4)cn1 (stereo partly shown)	human acute monocytic leukemia cell strain THP-1	0.05 µM
CN1CC[C@H]2C[C@H]1C(=O)NCC1(CC1)COc1c(-c3cncnc3)ccc3ncc(nc13)N2	human acute monocytic leukemia cell strain THP-1	0.045 µM
CCCOCc1ncc(-c2ccc3ncc4cc3c2OCCCNC(=O)[C@@H]2C[C@H](CCN2C)O4)cn1	human acute monocytic leukemia cell strain THP-1	0.5 µM
CCCOCc1ncc(-c2ccc3ncc4nc3c2OCCC(F)CNC(=O)[C@@H]2C[C@H](CCN2C)N4)cn1 (stereo partly shown)	human acute monocytic leukemia cell strain THP-1	0.163 µM
CN1CC[C@H]2C[C@H]1C(=O)OCCCOc1c(-c3cnc(COCC(O)C4CC4)nc3)ccc3ncc(cc13)N2 (stereo partly shown)	human acute monocytic leukemia cell strain THP-1	0.023 µM

Please fill in: IC50 reported for "CN1CC[C@H]2C[C@H]1C(=O)NCCCOc1c(-c3cnc(COC4CCC4)nc3)ccc3ncc(nc13)N2" = 0.076 µM
